biological target: Cannabinoid receptor 1 (Homo sapiens); note: assay procedure not described here
Sequence (P21554 whole entry): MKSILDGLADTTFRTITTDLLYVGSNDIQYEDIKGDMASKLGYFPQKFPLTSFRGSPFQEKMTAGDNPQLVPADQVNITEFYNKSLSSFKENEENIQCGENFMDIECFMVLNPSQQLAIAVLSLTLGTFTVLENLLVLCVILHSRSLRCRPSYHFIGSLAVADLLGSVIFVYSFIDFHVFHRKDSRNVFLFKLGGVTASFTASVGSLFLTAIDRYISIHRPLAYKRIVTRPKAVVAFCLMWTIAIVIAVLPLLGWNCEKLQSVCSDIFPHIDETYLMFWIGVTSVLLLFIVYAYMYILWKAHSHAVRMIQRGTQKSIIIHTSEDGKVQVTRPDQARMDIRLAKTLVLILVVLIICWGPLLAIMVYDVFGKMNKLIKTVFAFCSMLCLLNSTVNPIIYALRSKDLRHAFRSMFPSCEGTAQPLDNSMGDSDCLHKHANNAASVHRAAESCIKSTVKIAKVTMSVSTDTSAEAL
Assign AC50 to each entry below.

q: Report AC50 for CC(=O)[C@@]1(O)CC[C@H]2[C@@H]3C[C@H](C)C4=CC(=O)C=C[C@]4(C)[C@@]3(F)[C@@H](O)C[C@@]21C [FLUOROMETHOLONE] please.
a: > 10 µM

q: Please look up its AC50: OCC(CO)N[C@H]1C[C@](O)(CO)[C@@H](O)[C@H](O)[C@H]1O [VOGLIBOSE]
a: > 30 µM

Turning now to a further compound:
q: Reported AC50 for Cc1c(C)c2c(c(C)c1O)CCC(C)(COc1ccc(CC3SC(=O)NC3=O)cc1)O2 (stereo not drawn) [TROGLITAZONE] : what is it?
a: > 30 µM

* * *

A set of compounds tested on Adenosine receptor A2a (Homo sapiens, UniProt P29274), with measured AC50:

Example entries begin here.
q: Recorded AC50 for CN(C)CCC=C1c2ccccc2CCc2ccccc21 [AMITRIPTYLINE] with Adenosine receptor A2a (Homo sapiens, UniProt P29274), please?
a: > 30 µM

q: Field: AC50 (Adenosine receptor A2a (Homo sapiens, UniProt P29274)). Entry: `NS(=O)(=O)c1ccc(N2CCCCS2(=O)=O)cc1`
a: > 30 µM

q: Under Adenosine receptor A2a (Homo sapiens, UniProt P29274): AC50 value of CC(C(=O)O)c1ccc(C(=O)c2ccccc2)s1 (stereo unspecified) [TIAPROFENIC ACID] ?
a: > 10 µM

q: Param readout= AC50; system= Adenosine receptor A2a (Homo sapiens, UniProt P29274); entry= CO[C@@H]1[C@@H](OC(N)=O)[C@@H](O)[C@H](Oc2ccc3c(O)c(NC(=O)c4ccc(O)c(CC=C(C)C)c4)c(=O)oc3c2C)OC1(C)C [NOVOBIOCIN] ; returns value. Note: assay procedure not described here.
a: > 30 µM

q: Given the entry CCOC(=O)C1=C(C)NC(C)=C(C(=O)OC)C1c1cccc(Cl)c1Cl (stereo unspecified) [FELODIPINE] , what AC50 was observed with Adenosine receptor A2a (Homo sapiens, UniProt P29274)?
a: > 30 µM

Look at each compound and report its AC50.
1. CCCCOC(=O)C(=O)Nc1cccc(-c2nnn[nH]2)c1 [TAZANOLAST]
2. CCN(CC)CCn1c(=O)c(Cc2ccc(OC)cc2)nc2ccccc21 [CAROVERINE]
3. Cc1c(C)c2c(c(C)c1O)CCC(C)(COc1ccc(CC3SC(=O)NC3=O)cc1)O2 (stereo unspecified) [TROGLITAZONE]
4. CC(C)C[C@H](NC(=O)[C@H](Cc1ccccc1)NC(=O)c1cnccn1)B(O)O [BORTEZOMIB]
5. CCN(CCO)CCCC(C)Nc1ccnc2cc(Cl)ccc12 (stereo unspecified) [HYDROXYCHLOROQUINE]

a:
["> 30 µM", "> 30 µM", "> 30 µM", "> 30 µM", "> 10 µM"]

q: Given the entry CN(C)CCc1c[nH]c2ccc(CS(=O)(=O)N3CCCC3)cc12 [ALMOTRIPTAN] , what AC50 was observed with Adenosine receptor A2a (Homo sapiens, UniProt P29274)?
a: > 30 µM

* * *

molecular target: Sodium-dependent noradrenaline transporter (Homo sapiens, UniProt P23975); note: assay procedure not described here
Sequence (P23975 whole entry): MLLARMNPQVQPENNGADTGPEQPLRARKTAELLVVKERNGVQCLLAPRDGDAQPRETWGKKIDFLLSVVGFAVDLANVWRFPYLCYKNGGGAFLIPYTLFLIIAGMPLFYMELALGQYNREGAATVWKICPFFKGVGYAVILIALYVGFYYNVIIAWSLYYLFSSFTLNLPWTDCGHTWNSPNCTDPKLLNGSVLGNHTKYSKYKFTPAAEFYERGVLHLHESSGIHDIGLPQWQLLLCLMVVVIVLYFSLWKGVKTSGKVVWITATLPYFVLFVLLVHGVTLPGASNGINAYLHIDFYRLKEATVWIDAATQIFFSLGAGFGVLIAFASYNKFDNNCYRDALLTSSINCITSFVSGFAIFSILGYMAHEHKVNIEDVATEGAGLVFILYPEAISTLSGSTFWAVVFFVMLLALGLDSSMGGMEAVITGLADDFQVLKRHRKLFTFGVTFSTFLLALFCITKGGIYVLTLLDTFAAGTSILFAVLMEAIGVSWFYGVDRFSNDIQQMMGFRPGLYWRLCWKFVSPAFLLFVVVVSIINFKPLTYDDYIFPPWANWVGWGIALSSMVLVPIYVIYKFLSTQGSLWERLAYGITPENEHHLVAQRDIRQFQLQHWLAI
Reported Property: AC50

Below, 5 compounds whose answers are already recorded.
q: Quick check: AC50 of CN1C2CCCC1CC(NC(=O)c1nn(C)c3ccccc13)C2 (stereo not given) ?
a: > 10 µM

q: What does the record list as AC50 for CCC(=O)c1ccc2c(c1)N(CC(C)N(C)C)c1ccccc1S2 (stereo not given) ?
a: > 10 µM

q: Quick one: AC50 of `O=C1CN=C(c2ccccc2Cl)c2cc([N+](=O)[O-])ccc2N1` ?
a: > 10 µM

q: Query: AC50; subject: `CC(C)/N=c1\cc2n(-c3ccc(Cl)cc3)c3ccccc3nc-2cc1Nc1ccc(Cl)cc1`
a: > 30 µM

q: Fill in: AC50 of `C[C@]12CCC(=O)C=C1[C@@H]1C[C@@H]1[C@H]1[C@@H]3[C@@H]4C[C@@H]4[C@@]4(CCC(=O)O4)[C@@]3(C)CC[C@@H]12` is ___
a: > 30 µM

Report AC50 for each item below.
1. Cc1ccc(S(=O)(=O)NC(=O)N[C@H]2[C@H]3CC[C@@](C)([C@H]2O)C3(C)C)cc1 [GLIBORNURIDE]
2. CCN(CC)CCCN(c1ccccc1)C1Cc2ccccc2C1
3. Cc1ccc(-c2ncc(Cl)cc2-c2ccc(S(C)(=O)=O)cc2)cn1
4. C[C@H](Cn1cnc2c(N)ncnc21)OCP(=O)(O)O [TENOFOVIR ANHYDROUS]
5. CN(Cc1ccc(C(C)(C)C)cc1)Cc1cccc2ccccc12
6. C[C@H](CCC(=O)O)[C@H]1CC[C@H]2[C@@H]3[C@H](O)C[C@@H]4C[C@H](O)CC[C@]4(C)[C@H]3CC[C@]12C
7. COc1ccc(-n2nc(C(N)=O)c3c2C(=O)N(c2ccc(N4CCCCC4=O)cc2)CC3)cc1
8. CCCCC[C@H](O)CC[C@@H]1[C@H]2Cc3cccc(OCC(=O)O)c3C[C@H]2C[C@H]1O

a:
> 30 µM
2.3 µM
> 10 µM
> 30 µM
> 10 µM
> 30 µM
> 30 µM
> 30 µM

* * *

Assign AC50 to each entry below.
biological target: UniProtKB P18825; format: functional
Sequence (P18825 whole entry): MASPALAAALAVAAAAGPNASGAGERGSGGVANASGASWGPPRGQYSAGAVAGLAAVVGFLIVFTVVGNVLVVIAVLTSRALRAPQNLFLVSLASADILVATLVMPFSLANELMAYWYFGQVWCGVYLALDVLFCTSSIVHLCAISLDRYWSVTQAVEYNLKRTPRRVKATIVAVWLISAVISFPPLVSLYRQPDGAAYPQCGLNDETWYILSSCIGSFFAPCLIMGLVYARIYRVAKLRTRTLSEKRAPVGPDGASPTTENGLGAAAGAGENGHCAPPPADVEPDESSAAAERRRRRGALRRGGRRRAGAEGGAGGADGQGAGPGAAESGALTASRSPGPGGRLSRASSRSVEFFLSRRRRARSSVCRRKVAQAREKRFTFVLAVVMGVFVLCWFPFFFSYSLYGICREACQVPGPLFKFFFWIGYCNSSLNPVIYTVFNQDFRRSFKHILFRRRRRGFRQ

// solved cases for AC50 follow
q: Consider the molecule `NCCCCCC(=O)O` and give its measured AC50.
a: > 10 µM

q: Quick one: AC50 of `C[C@H](CCC(=O)O)[C@H]1CC[C@H]2[C@@H]3[C@H](O)C[C@@H]4C[C@H](O)CC[C@]4(C)[C@H]3CC[C@]12C` ?
a: > 30 µM

q: // query AC50 value for entry Cc1ccc(S(=O)(=O)NC(=O)N[C@H]2[C@H]3CC[C@@](C)([C@H]2O)C3(C)C)cc1 [GLIBORNURIDE]
a: > 30 µM

Your task in this section: give AC50 for each listed record.
1. CCC1(c2ccccc2)C(=O)NCNC1=O
2. CC(C)(N)Cc1ccccc1

a:
["> 10 µM", "> 10 µM"]

Look up AC50 for the entries below, preserving their order.
1. CC(=O)OCC1=C(C(=O)O)N2C(=O)[C@@H](NC(=O)CSc3ccncc3)[C@H]2SC1
2. CN(C)[C@@H]1C(O)=C(C(=O)NCN2CCCC2)C(=O)[C@@]2(O)C(O)=C3C(=O)c4c(O)cccc4[C@@](C)(O)[C@H]3C[C@@H]12

a:
["> 10 µM", "> 10 µM"]

Would you mind listing AC50 for each of the following molecules?
1. N=C(N)NC(=O)c1nc(Cl)c(N)nc1N [AMILORIDE]
2. CC(C)(C)NCC(O)COc1ccccc1C#N (stereo not given)
3. Nc1nnc(-c2cccc(Cl)c2Cl)c(N)n1
4. COc1ccc(C(Cl)=C(c2ccc(OC)cc2)c2ccc(OC)cc2)cc1
5. C=C(c1ccccc1OCc1cccc(Cl)c1)n1ccnc1
6. CC(C)C[C@H](NC(=O)[C@H](Cc1ccccc1)NC(=O)c1cnccn1)B(O)O

a:
["> 30 µM", "> 30 µM", "> 10 µM", "> 30 µM", "> 10 µM", "> 30 µM"]

Batch of 2 molecules: report AC50 for each.
1. O=C(O)c1ccc2nc(-c3cc(Cl)cc(Cl)c3)oc2c1
2. COc1cc(N)cn[n+]1-c1ccccc1 [AMEZINIUM METILSULFATE]

a:
["> 30 µM", "> 30 µM"]

Please report AC50 for every entry that follows.
1. C[C@H](CS)C(=O)N1CCC[C@H]1C(=O)O
2. COc1ccc(-n2nc(C(N)=O)c3c2C(=O)N(c2ccc(N4CCCCC4=O)cc2)CC3)cc1
3. CN(C)CCC=C1c2ccccc2CCc2ccccc21
4. Cc1ccc(-c2ncc(Cl)cc2-c2ccc(S(C)(=O)=O)cc2)cn1

a:
1: > 10 µM; 2: > 30 µM; 3: 0.29 µM; 4: > 10 µM

I need AC50 for every entry listed below, if you could help.
1. CN1C2CCCC1CC(NC(=O)c1nn(C)c3ccccc13)C2 (stereo not given)
2. O=C(Cc1cccs1)N[C@@H]1C(=O)N2C(C(=O)[O-])=C(C[n+]3ccccc3)CS[C@H]12
3. O=C(O)COC(=O)Cc1ccccc1Nc1c(Cl)cccc1Cl
4. CCOCC(O)COc1ccc(NC(=O)CC[S+](C)C)cc1 (stereo not given)
5. CO/N=C(\C(=O)N[C@@H]1C(=O)N2C(C(=O)O)=C(CSc3nc(C)c(CC(=O)O)s3)CS[C@H]12)c1csc(N)n1

a:
1: > 10 µM; 2: > 30 µM; 3: > 10 µM; 4: > 30 µM; 5: > 30 µM

Would you be so kind as to report AC50 for each listed record?
1. O=C(C[S+]([O-])Cc1ccco1)NC/C=C\COc1cc(CN2CCCCC2)ccn1 (stereo not given)
2. CO[C@@H]1[C@@H](OC(N)=O)[C@@H](O)[C@H](Oc2ccc3c(O)c(NC(=O)c4ccc(O)c(CC=C(C)C)c4)c(=O)oc3c2C)OC1(C)C
3. COC(=O)[C@H]1[C@H]2C[C@@H]3c4[nH]c5ccccc5c4CCN3C[C@H]2C[C@@H](OC(=O)c2cc(OC)c(OC)c(OC)c2)[C@@H]1OC
4. CN(C)CCOC(c1ccc(Cl)cc1)c1ccccn1 (stereo not given)
5. Nc1nc(Cl)nc2c1ncn2[C@@H]1O[C@H](CO)[C@@H](O)[C@@H]1F

a:
1. 2.6 µM
2. > 30 µM
3. 12 µM
4. > 30 µM
5. > 30 µM

Give AC50 for each of the items listed below.
1. C[C@]12C=CC(=O)C=C1C(Cl)=C[C@@H]1[C@@H]2[C@@H](O)C[C@@]2(C)[C@H]1CC[C@]2(O)C(=O)CO
2. CCC(=O)O[C@H](CC(=O)O)C[N+](C)(C)C [LEVOCARNITINE PROPIONATE]
3. O=C(O[C@H]1C[N+]2(CCCOc3ccccc3)CCC1CC2)C(O)(c1cccs1)c1cccs1 [ACLIDINIUM BROMIDE]
4. CN1CCCN=C1/C=C/c1cccc(O)c1

a:
> 30 µM
> 30 µM
2.5 µM
> 30 µM

Can you give me AC50 for all of these, one by one?
1. NCC1(CC(=O)O)CCCCC1
2. CCCCCCCC(=O)CC[C@@H]1[C@@H](C/C=C\CCCC(=O)O)[C@@H](O)C[C@H]1O

a:
["> 30 µM", "> 30 µM"]
